assay name: chemical genetic growth profiling, strain panel (AID 1159580);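 also: tested at 20 µM; growth read once vehicle control cultures reached saturation at 30 °C; 1 = growth at the plate median or of vehicle wells; lower values mean less growth of the strain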
condition parameters: S. cerevisiae deletion strains, growth OD, locus YKL190W, strain CNB1, active compounds read low
The whole screen tested about 5,500 compounds, of which about 2,000 (36%) were called active. Inconclusive results (about 18%) are left out. The list shows a part of the results.
reported property: normalized growth
Answer using only a numeral; do not append any unit.

The examples below pair each entry with its known result.
Cc1c(OCC(F)(F)F)ccnc1CS(=O)c1nc2ccccc2[nH]1 (stereo not given) :: 0.987
O=C1c2ccccc2C(=O)N1CN1CCC(O)(c2ccc(Cl)cc2)CC1 :: 1.01
O=[N+]([O-])c1cnc2ccccn12 :: 1.02
C/C=C(/C)C(=O)O[C@@H]1Cc2c(ccc3ccc(=O)oc23)OC1(C)C :: 0.935
CC(=O)O[C@@H]1c2c(ccc3ccc(=O)oc23)OC(C)(C)[C@@H]1OC(=O)CC(C)C :: 0.989
CC(C)(C)NCC(O)COc1cccc2c1C[C@H](O)[C@H](O)C2 (stereo not given in full) :: 0.993

Query: May I ask what normalized growth has been recorded for Oc1ccc2c3c1OC1[C@@H](O)CC[C@@]4(O)[C@@H](C2)N(CC2CCC2)CC[C@]314 (stereo not given in full) ?
Reply: 1.01

Query: Another compound: O=C(CCCN1CCC2(CC1)C(=O)NCN2c1ccccc1)c1ccc(F)cc1
Reply: 0.99

Query: Follow-up item: O=C1C(c2ccc(Br)cc2)=C(O)c2ccccc21
Reply: 0.983

Query: Okay, and COC(=O)C[C@H]1C(C)(C)[C@@H](O)[C@@H]2CC3=C4CC(O)O[C@@H](c5ccoc5)[C@]4(C)CCC3[C@@]1(C)C2=O (stereo not given in full) ?
Reply: 1

----------
assay name: chemical genetic growth profiling, strain panel (AID 1159580);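 also: tested at 20 µM; growth read once vehicle control cultures reached saturation at 30 °C; 1 = growth at the plate median or of vehicle wells; lower values mean less growth of the strain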
condition parameters: S. cerevisiae deletion strains, growth OD, locus YDR101C, strain arx1, active compounds read low
The whole screen tested about 5,500 compounds, of which about 2,000 (36%) were called active. Roughly 18% stayed inconclusive and do not appear here. The list shows a part of the results.
List of normalized growth values.
Answer field: number only, no words.

These recorded examples may help you get a feel for the data.
NC[C@H]1O[C@H](OC2[C@@H](N)C[C@@H](N)[C@H](O[C@H]3O[C@H](CO)[C@@H](O)[C@H](N)[C@H]3O)[C@H]2O)[C@H](O)[C@@H](O)[C@@H]1O (stereo partly drawn) :: 0.99
O=C(/C=C(\O)c1ccccc1)c1ccccc1O :: 0.665
COC(=O)C[C@H]1C(C)(C)[C@@H](O)[C@@H]2CC3=C4CC(O)O[C@@H](c5ccoc5)[C@]4(C)CCC3[C@@]1(C)C2=O (stereo partly drawn) :: 0.999

# next compound below
Query: # lookup: normalized growth of C[C@@H]1CCC2[C@](C)(CO)[C@@H](O)CC[C@]2(C)[C@@]12CC[C@@](CO)(CCO)O2 (stereo partly drawn)
Reply: 0.995

----------
assay name: chemical genetic growth profiling, strain panel (AID 1159580);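 also: tested at 20 µM; growth read once vehicle control cultures reached saturation at 30 °C; 1 = growth at the plate median or of vehicle wells; lower values mean less growth of the strain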
condition parameters: S. cerevisiae deletion strains, growth OD, locus YLR357W, strain rsc2
Out of some 5,500 compounds screened, about 2,000 (36%) were called active. Inconclusive results (about 18%) are left out. No stated cut-off is given here; in the data, active means normalized growth mostly below about 0.91 (no sharp cut-off); inconclusive means no clear call, values can overlap the other calls; inactive means mostly above about 0.92. The list shows a part of the results.
A correct response names exactly one class from active, inactive

Please review the following examples before continuing.
O=C(O)c1ccccc1O :: inactive
COc1cc(-c2cc(=O)c3c(O)c(OC)c(OC)c(OC)c3o2)cc(OC)c1OC :: inactive
Nc1nc(/C(=C/CC(=O)O)C(=O)N[C@@H]2C(=O)N3C(C(=O)O)=CCS[C@H]23)cs1 :: inactive

Query: Please indicate how the test categorized COc1ccc(-c2cc(=O)c3c(OC)c(OC)c(OC)c(OC)c3o2)cc1OC .
Reply: inactive

Query: One more molecule: C[C@@H]1CCC2[C@](C)(CO)[C@@H](O)CC[C@]2(C)[C@@]12CC[C@@](CO)(CCO)O2 (stereo not given in full)
Reply: inactive

Query: Repeat with COc1ccc(-c2cc(=O)c3c(O)c(OC)c(O[C@H]4O[C@H](CO[C@@H]5O[C@@H](C)[C@H](O)[C@@H](O)[C@H]5O)[C@@H](O)[C@H](O)[C@H]4O)cc3o2)cc1
Reply: inactive

Query: And what about the molecule NC[C@H]1O[C@H](O[C@H]2[C@H](O)[C@@H](O[C@H]3O[C@H](CO)[C@@H](O)[C@H](N)[C@H]3O)[C@H](N)C[C@@H]2N)[C@H](N)[C@@H](O)[C@@H]1O ?
Reply: inactive

Query: Let us now turn to CC(=O)N1CCN(c2ccc(OCC3CO[C@](Cn4ccnc4)(c4ccc(Cl)cc4Cl)O3)cc2)CC1 (stereo not given in full)
Reply: active

Query: Queued: NC(=O)c1ccccc1O
Reply: inactive

Query: Follow-up item: COc1cc(C(=O)N2CCOCC2)cc(OC)c1OC
Reply: inactive

Query: Repeat with COc1ccc(-c2cc(=O)c3c(O)c(OC)c(OC)c(OC)c3o2)cc1OC
Reply: inactive

Query: And then CC12CCC(=O)C=C1CCc1ccccc12 (stereo not given) , what is it?
Reply: active

Query: // same read-out, input: O=C(Oc1ccccc1C(=O)O)c1ccccc1O
Reply: inactive

Query: Follow-up item: C[C@H]1O[C@H](O[C@H]2[C@H](O)[C@@H](O)[C@@H](O[C@H]3[C@H](O)[C@@H](O)C(O)O[C@@H]3CO)O[C@@H]2CO)[C@H](O)[C@@H](O)[C@@H]1N[C@H]1C=C(CO)[C@@H](O)[C@H](O)[C@H]1O (stereo not given in full)
Reply: inactive

Query: And what about the molecule CC1(C)Oc2ccc3ccc(=O)oc3c2CC1O (stereo not given) ?
Reply: inactive

Query: Note, next up: COc1ccc(-c2cc(=O)c3c(O)cc(O)cc3o2)cc1
Reply: inactive

Query: Next: Cc1ccc(-c2nc3ccc(C)cn3c2CC(=O)N(C)C)cc1
Reply: inactive

Query: # iterate: CC1=CC(=O)C(C(C)C)=CC1=O
Reply: active

Query: Now this one: CC1(C)[C@@H]2CC[C@@]1(C)C(=O)C2
Reply: inactive

Query: // next record O=C(/C=C(\O)c1ccccc1)c1ccccc1O
Reply: active
